Each recorded value in this set is attributed to the supplement of paper PMC6555819.

# System: PPARg DBDmut:RXRa IVT, anti-PPARg (DBD mutation: PPARg1 K132A/R137A, NR concentration 270 nM, RXRa partner concentration 90 nM)
# experimentDescription: PBM binding z-score (relative to random genomic background probes); higher = stronger binding; sequences stand for … in GC…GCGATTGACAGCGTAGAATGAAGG
Tag: class 1 if measured PBM binding z-score is not below 0.7, class 0 if it is.

# sequenceInput, category
rows = [
    ("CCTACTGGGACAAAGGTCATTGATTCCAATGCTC", "class 1"),
]

Problem: Reported PBM binding z-score reaches at least 0.7 for "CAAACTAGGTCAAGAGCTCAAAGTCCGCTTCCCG" ?
Result: class 1

Problem: Reported PBM binding z-score at or above 0.7? "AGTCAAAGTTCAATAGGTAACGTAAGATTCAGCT"
Result: class 1

Problem: Could you tell me if the measured PBM binding z-score of "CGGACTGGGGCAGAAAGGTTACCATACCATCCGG" reaches 0.7 or more?
Result: class 0

Problem: In plain terms: is recorded PBM binding z-score at least 0.7 for "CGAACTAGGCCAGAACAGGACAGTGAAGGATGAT" ?
Result: class 0

Problem: Given the entry "TGAATGAGGTTATAAGATCAGGGCACGTTGCAAA" , answer whether its PBM binding z-score meets or surpasses 0.7.
Result: class 0

Problem: Could you please find out whether "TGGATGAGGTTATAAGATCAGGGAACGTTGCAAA" has PBM binding z-score that meets 0.7 or exceeds it?
Result: class 0

----------
Can you tell me PBM binding z-score for the items I'm about to list?
# Tested on: RARg:RXRa (NR concentration 270 nM, RXRa partner concentration 90 nM)
# experimentDescription: PBM binding z-score (relative to random genomic background probes); higher = stronger binding; sequences stand for … in GC…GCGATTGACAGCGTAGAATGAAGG
One number for each entry.

Below are worked cases with known answers.
# sequenceInput, PBM binding z-score
records = [
    ("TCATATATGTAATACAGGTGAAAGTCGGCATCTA", 0.595),
    ("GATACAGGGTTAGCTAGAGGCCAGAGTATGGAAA", 3.12),
    ("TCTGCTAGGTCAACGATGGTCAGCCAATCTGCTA", 4.3),
    ("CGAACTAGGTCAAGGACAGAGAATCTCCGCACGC", 3.95),
]

Could you report PBM binding z-score for every entry in the following list?
1. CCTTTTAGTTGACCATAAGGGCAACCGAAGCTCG
2. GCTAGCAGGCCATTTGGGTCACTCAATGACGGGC
3. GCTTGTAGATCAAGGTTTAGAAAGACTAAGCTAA
4. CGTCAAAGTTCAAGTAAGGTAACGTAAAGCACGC
5. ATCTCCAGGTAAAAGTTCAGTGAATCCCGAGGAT

Result:
1: 1.55; 2: 1.11; 3: -0.251; 4: 5.63; 5: 2.14

Required: PBM binding z-score, one value per sequence below.
1. TCTATTAGTTGATTAGGGCAACCAAAACAGCGGA
2. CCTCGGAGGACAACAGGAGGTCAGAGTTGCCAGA
3. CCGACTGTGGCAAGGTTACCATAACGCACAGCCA
4. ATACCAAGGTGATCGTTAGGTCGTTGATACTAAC
5. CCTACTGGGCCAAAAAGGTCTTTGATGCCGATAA

Result:
0.694
3.42
0.293
0.983
-0.217

Look at each sequence and report its PBM binding z-score.
1. CGAACGAGGGCATGAGTTGATAGCCAATGCCGAT
2. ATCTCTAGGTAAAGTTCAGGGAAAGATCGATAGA

Result:
1. 1.34
2. 2.5

# batch size: 2; output PBM binding z-score per entry
1. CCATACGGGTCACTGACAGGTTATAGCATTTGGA
2. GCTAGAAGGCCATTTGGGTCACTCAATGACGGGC

Result:
5.82
1.61

----------
# Tested on: RXRa homodimer (NR concentration 180 nM)
# experimentDescription: PBM binding z-score (relative to random genomic background probes); higher = stronger binding; sequences stand for … in GC…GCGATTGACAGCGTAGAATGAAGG
observedProperty: PBM binding z-score
Answers are plain numbers.

Below are worked cases with known answers.
# sequenceInput, testValue
rows = [
    ("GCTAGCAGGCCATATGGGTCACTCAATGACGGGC", 1.43),
    ("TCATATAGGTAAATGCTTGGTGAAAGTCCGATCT", 0.692),
    ("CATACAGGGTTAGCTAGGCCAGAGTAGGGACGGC", 0.914),
]

// each sequence listed below needs its PBM binding z-score
1. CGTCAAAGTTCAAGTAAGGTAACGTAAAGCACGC
2. ATATGTAGGTTAGCTCGGGTCATTCAGACTAGGC
3. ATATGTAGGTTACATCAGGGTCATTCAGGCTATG
4. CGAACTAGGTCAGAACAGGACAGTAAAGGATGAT

Result:
1. 4.68
2. 3.02
3. 4.28
4. 1.27

----------
# Tested on: LXRb homodimer (NR concentration 270 nM)
# experimentDescription: PBM binding z-score (relative to random genomic background probes); higher = stronger binding; sequences stand for … in GC…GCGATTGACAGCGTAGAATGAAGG
# binning rule on PBM binding z-score: band 1 (below -0.6), band 2 (-0.6 to below -0.1), band 3 (-0.1 or more)

Examples with answers:
# sequenceInput, category
data = [
    ("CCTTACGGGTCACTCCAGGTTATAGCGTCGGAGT", "band 3"),
    ("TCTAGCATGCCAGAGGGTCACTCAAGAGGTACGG", "band 1"),
    ("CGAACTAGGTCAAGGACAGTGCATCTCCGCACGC", "band 2"),
]

Problem: Category of "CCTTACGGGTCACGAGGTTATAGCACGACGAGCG" , please.
Result: band 2

Problem: Which class does "TCTCGGAGGACACGAAAGATCAGAGCTCGACATC" fall in?
Result: band 1

Problem: Field: class (PBM binding z-score) — entry: "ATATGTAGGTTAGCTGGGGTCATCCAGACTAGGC"
Result: band 3

Problem: Which bin, given its PBM binding z-score, does "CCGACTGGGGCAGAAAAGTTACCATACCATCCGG" occupy?
Result: band 1

Problem: Lab log: "CCAGACACGTGAGAAGGTAACTCAGCCTCGATTA" — assign PBM binding z-score category
Result: band 2

Problem: Record "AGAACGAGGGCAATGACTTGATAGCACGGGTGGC" — which class?
Result: band 2

Problem: Looking at "TCTGCTAGGTCTGTTGGTCAGCTAACGAGCTGCC" , which class would you pick?
Result: band 3

Problem: Would you mind sorting "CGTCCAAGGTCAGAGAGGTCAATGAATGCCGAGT" into the appropriate category?
Result: band 3

Problem: Pick a category. Item: "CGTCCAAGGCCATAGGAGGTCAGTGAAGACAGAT"
Result: band 1

Problem: Quick check: band for "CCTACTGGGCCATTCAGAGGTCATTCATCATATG"
Result: band 3

Problem: Which PBM binding z-score band matches "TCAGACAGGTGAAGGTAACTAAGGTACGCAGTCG" ?
Result: band 3

Problem: # classify by PBM binding z-score band: "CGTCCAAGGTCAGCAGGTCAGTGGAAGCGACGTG"
Result: band 2

Problem: Which PBM binding z-score band matches "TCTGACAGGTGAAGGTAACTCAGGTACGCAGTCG" ?
Result: band 2

Problem: Sort "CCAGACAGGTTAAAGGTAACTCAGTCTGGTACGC" into one of the categories.
Result: band 2

Problem: Which band does "CCGACTGGCGCAAAGGTTACCATACTCAGTACGA" fall in?
Result: band 1

----------
# Tested on: THRa homodimer (NR concentration 90 nM)
# experimentDescription: PBM binding z-score (relative to random genomic background probes); higher = stronger binding; sequences stand for … in GC…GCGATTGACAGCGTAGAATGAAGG
Where PBM binding z-score equals or exceeds 0.6, the correct label is yes; where it does not, the label is no.

Completed entries (count: 5):
# sequenceInput, category
records = [
    ("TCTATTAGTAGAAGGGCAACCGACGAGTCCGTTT", "no"),
    ("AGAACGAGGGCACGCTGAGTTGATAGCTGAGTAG", "no"),
    ("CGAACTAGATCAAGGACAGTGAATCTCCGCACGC", "yes"),
    ("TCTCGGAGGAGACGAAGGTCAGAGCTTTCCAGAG", "no"),
    ("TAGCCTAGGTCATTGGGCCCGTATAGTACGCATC", "yes"),
]

Problem: Test whether the sequence "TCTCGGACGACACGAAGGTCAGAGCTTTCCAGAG" records PBM binding z-score of 0.6 or higher.
Result: no

Problem: Quick check, PBM binding z-score >= 0.6? "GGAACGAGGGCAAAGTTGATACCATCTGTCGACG"
Result: no

Problem: Check if PBM binding z-score >= 0.6 (inclusive). Item: "ACAGACAGGTGATGCAGGTAACTCAGGCTATCAT"
Result: no

Problem: Say whether "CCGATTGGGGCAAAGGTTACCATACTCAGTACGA" shows PBM binding z-score of 0.6 or more.
Result: no

Problem: Entry "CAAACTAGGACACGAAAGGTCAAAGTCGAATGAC" : is its PBM binding z-score no less than 0.6?
Result: yes

Problem: hey, is PBM binding z-score for this one >= 0.6? "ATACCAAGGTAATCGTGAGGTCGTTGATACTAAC"
Result: yes

Problem: Is it the case that "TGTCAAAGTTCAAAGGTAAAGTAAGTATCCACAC" has PBM binding z-score reaching or exceeding 0.6?
Result: no

Problem: Evaluate "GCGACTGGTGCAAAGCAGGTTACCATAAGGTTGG" : PBM binding z-score at minimum 0.6?
Result: no
